Hello, the source for this data is patent US20230061973A1, in case you need it.

Target: T1, exemplary TAT frataxin fusion molecule (HIV-1, UniProt Q16595 1-210)
T1 construct: in the bridging assays biotinylated and sulfotagged forms were used; also called TAT-FXN fusion molecule; TAT FXN fusion molecule
T1 sequence: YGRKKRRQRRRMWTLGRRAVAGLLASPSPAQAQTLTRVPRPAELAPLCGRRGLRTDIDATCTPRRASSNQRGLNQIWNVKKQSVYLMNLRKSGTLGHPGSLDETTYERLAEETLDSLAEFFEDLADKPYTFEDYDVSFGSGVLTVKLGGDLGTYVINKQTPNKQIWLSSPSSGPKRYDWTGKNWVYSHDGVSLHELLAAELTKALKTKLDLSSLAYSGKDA
Assay: PK sandwich ELISA in human plasma, antibody as capture, HRP anti-frataxin mAb detection
Recorded S/N at plasma conc. 0.800 ng/mL for the following binders
The answer should be written as a number, with no unit following it.

Consider the following illustrative entries.
antibody 10-5 (antibody, V domains shown, Rabbit monoclonal) VH: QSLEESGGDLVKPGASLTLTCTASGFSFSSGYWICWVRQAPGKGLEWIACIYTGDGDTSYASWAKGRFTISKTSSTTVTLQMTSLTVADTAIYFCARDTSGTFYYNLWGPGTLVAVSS VL: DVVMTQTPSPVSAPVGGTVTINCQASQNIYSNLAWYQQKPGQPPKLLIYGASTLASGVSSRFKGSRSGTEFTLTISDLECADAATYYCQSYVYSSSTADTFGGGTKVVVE
1.9
antibody 12-10 (antibody, V domains shown, Rabbit monoclonal) VH: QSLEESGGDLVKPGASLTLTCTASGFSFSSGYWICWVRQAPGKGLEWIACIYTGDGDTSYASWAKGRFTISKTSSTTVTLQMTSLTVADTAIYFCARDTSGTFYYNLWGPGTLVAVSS VL: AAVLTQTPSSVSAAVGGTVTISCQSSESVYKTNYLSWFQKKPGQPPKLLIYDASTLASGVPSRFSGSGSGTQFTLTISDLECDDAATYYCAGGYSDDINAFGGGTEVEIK
1.8

// moving on: another record for S/N at plasma conc. 0.800 ng/mL
Entry under test: antibody 10-1 (antibody, V domains shown, Rabbit monoclonal) VH: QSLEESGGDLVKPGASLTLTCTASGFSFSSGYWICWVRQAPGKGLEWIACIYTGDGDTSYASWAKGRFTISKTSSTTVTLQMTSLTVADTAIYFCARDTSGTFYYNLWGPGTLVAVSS VL: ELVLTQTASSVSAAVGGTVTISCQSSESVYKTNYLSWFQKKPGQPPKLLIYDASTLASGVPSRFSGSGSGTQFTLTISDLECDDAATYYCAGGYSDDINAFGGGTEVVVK . Its S/N at plasma conc. 0.800 ng/mL was 2
